Each entry below carries its recorded pIC50.
Biological target: PDK1 (Homo sapiens, UniProt O15530)
Construct: endogenous in cells; host or cells: PC3 cells
Assay: Cellular testing of PDK1 kinase inhibitors in PC3 cells (Luminex, phospho-T308-PKB)
Type: cell-based
Conditions: 30 min, serum-free
Sequence (O15530 whole entry): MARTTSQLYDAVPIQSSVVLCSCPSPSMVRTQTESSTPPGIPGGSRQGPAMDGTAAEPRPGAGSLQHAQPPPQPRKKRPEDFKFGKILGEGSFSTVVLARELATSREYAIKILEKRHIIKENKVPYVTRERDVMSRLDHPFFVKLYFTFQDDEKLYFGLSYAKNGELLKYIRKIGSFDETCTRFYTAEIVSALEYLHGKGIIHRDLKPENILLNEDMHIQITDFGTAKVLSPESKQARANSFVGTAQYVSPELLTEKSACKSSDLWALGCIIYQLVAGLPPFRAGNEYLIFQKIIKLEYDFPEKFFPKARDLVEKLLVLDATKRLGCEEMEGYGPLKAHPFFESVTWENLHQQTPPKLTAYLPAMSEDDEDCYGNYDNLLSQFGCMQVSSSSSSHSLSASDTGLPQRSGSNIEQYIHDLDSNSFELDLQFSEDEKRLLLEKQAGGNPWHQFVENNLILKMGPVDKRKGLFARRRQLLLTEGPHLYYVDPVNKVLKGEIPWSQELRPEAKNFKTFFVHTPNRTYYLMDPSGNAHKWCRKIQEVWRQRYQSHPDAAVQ
pIC50: −log10 of the molar value.

Cn1cc(-c2cnc3[nH]cc(-c4n[nH]c(Cc5cccc(F)c5)n4)c3c2)cn1 | 5.00 to 6.00
Cn1cc(-c2cnc3[nH]cc(-c4nnc(C(O)c5ccccc5C(F)(F)F)o4)c3c2)cn1 (stereo not shown) | 6.00 to 9.30
Cn1cc(-c2cnc3[nH]cc(-c4n[nH]c(C(C)(O)c5cccc(F)c5)n4)c3c2)cn1 (stereo not shown) | 5.00 to 6.00
Cn1cc(-c2cnc3[nH]cc(-c4nnc(C(N)c5ccccc5Cl)o4)c3c2)cn1 (stereo not shown) | 6.00 to 9.30
Cn1cc(-c2cnc3[nH]cc(-c4cc(C(C)(O)c5ccccc5F)[nH]n4)c3c2)cn1 (stereo not shown) | 5.00 to 6.00
Cn1cc(-c2cnc3[nH]cc(-c4nnc(C(O)c5cccc(Cl)c5)o4)c3c2)cn1 (stereo not shown) | 6.00 to 9.30
COc1ccc(C2(c3nc(-c4c[nH]c5ncc(-c6cnn(C)c6)cc45)n[nH]3)CC2)cn1 | 5.00 to 6.00
Cn1cc(-c2cnc3[nH]cc(-c4nnc(C(O)c5cccc(F)c5)o4)c3c2)cn1 (stereo not shown) | 6.00 to 9.30

Task: Which pIC50 value belongs to Cn1cc(-c2cnc3[nH]cc(-c4nnc([C@H](N)c5ccccc5Cl)o4)c3c2)cn1 ?
Output: 6.00 to 9.30

Task: Also, Cc1cc(C2(c3nnc(-c4c[nH]c5ncc(-c6cnn(C)c6)cc45)o3)CC2)ccn1 please.
Output: 5.00 to 6.00

====

Each entry below carries its recorded IC50.
Target: PDK1 (Homo sapiens)
Construct: His6 (N)
Test: Test for the inhibition of PDK1 (flashplate, 33P-ATP)
Details: His6-PDK1 (1-50) 3.4 nM, 4 μM ATP, 30° C., 60 min; read-out: IC50 [PDK1] biochemical
Sequence (O15530 51-556 limits assumed): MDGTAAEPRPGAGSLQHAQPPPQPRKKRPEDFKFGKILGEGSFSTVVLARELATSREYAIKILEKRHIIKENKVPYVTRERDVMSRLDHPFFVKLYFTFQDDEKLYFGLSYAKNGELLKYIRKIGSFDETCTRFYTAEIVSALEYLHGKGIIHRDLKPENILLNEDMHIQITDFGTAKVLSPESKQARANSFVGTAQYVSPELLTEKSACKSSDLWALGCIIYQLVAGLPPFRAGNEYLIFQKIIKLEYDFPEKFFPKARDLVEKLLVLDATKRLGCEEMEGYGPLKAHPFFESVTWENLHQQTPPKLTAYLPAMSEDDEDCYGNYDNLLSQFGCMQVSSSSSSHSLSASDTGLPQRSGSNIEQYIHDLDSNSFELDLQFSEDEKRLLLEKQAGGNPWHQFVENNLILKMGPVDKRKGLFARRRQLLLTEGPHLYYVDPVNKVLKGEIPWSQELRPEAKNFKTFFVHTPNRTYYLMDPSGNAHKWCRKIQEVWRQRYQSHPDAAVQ

Cn1cc(-c2cnc3[nH]cc(-c4nc(C(C)(O)c5cccc(Cl)c5)no4)c3c2)cn1 (centres unmarked) | 0.5 to 1000 nM
Cn1cc(-c2cnc3[nH]cc(-c4n[nH]c(C(=O)c5ccccc5)n4)c3c2)cn1 | 1000 to 10000 nM
Cn1cc(-c2cnc3[nH]cc(-c4cc([C@](C)(O)c5ccccc5F)on4)c3c2)cn1 (single isomer, unassigned) [A56] | 0.5 to 1000 nM
Cn1cc(-c2cnc3[nH]cc(-c4n[nH]c(Cc5ccccc5F)n4)c3c2)cn1 | 0.5 to 1000 nM
Cn1cc(-c2cnc3[nH]cc(-c4cc(C(O)c5ccccc5)on4)c3c2)cn1 (centres unmarked) | 0.5 to 1000 nM
Cn1cc(-c2cnc3[nH]cc(-c4cc([C@](C)(O)c5ccccc5F)on4)c3c2)cn1 (single isomer, unassigned) [A55] | 0.5 to 1000 nM
Cn1cc(-c2cnc3[nH]cc(-c4nnc(C(F)c5cccc(F)c5)o4)c3c2)cn1 (centres unmarked) | 1000 to 10000 nM
Cn1cc(-c2cnc3[nH]cc(-c4n[nH]c(C(C)(O)c5ccccc5F)n4)c3c2)cn1 (centres unmarked) | 0.5 to 1000 nM
Cn1cc(-c2cnc3[nH]cc(-c4cc([C@](C)(O)c5cccc(F)c5)on4)c3c2)cn1 (single isomer, unassigned) [A62] | 0.5 to 1000 nM
Cn1cc(-c2cnc3[nH]cc(-c4nnc(C(C)(O)c5ccccc5Cl)o4)c3c2)cn1 (centres unmarked) | 0.5 to 1000 nM

Task: Which IC50 value belongs to CCC(O)(c1cc(-c2c[nH]c3ncc(-c4cnn(C)c4)cc23)no1)c1ccccc1F (centres unmarked) ?
Output: 0.5 to 1000 nM

Task: Also, Cn1cc(-c2cnc3[nH]cc(-c4noc(C(C)(O)c5cccc(F)c5)n4)c3c2)cn1 (centres unmarked) please.
Output: 0.5 to 1000 nM

Task: Also, Cc1cc(C2(c3nnc(-c4c[nH]c5ncc(-c6cnn(C)c6)cc45)o3)CC2)ccn1 please.
Output: 1000 to 10000 nM

Task: Also, CCOC(c1ccccc1)c1cc(-c2c[nH]c3ncc(-c4cnn(C)c4)cc23)n[nH]1 (centres unmarked) please.
Output: 0.5 to 1000 nM

====

Biological target: PDK1 (Homo sapiens)
Construct: endogenous in cells; host or cells: PC3 cells
Test: Cellular testing of PDK1 kinase inhibitors in PC3 cells (Luminex, phospho-T308-PKB)
Assay type: cell-based
Conditions: 30 min, serum-free
reported_metric: IC50

Cn1cc(-c2cnc3[nH]cc(-c4n[nH]c(C5(c6ccc(=O)[nH]c6)CC5)n4)c3c2)cn1 | 1000 to 10000 nM
Cn1cc(-c2cnc3[nH]cc(-c4n[nH]c(C(C)(O)c5cccc(F)c5F)n4)c3c2)cn1 (centres unmarked) | 1000 to 10000 nM
Cn1cc(-c2cnc3[nH]cc(-c4nnc(C5(c6ccc(Cl)nc6)CC5)o4)c3c2)cn1 | 1000 to 10000 nM
COC(c1ccccc1)c1nnc(-c2c[nH]c3ncc(-c4cnn(C)c4)cc23)o1 (centres unmarked) | 1000 to 10000 nM
C=C(c1cc(-c2c[nH]c3ncc(-c4cnn(C)c4)cc23)n[nH]1)c1ccccc1F | 1000 to 10000 nM
CCC(O)(c1cc(-c2c[nH]c3ncc(-c4cnn(C)c4)cc23)no1)c1ccccc1F (centres unmarked) | 0.5 to 1000 nM

Task: Item Cn1cc(-c2cnc3[nH]cc(-c4noc(C(C)(O)c5cccc(F)c5)n4)c3c2)cn1 (centres unmarked) with PDK1 (Homo sapiens) - IC50?
Output: 1000 to 10000 nM

Task: Also, COC(=O)c1ccc(C(O)c2nnc(-c3c[nH]c4ncc(-c5cnn(C)c5)cc34)o2)c(Cl)c1 (centres unmarked) please.
Output: 1000 to 10000 nM

Task: Also, Cn1cc(-c2cnc3[nH]cc(-c4n[nH]c(C(=O)c5ccccc5)n4)c3c2)cn1 please.
Output: 1000 to 10000 nM

Task: Also, Cn1cc(-c2cnc3[nH]cc(-c4cc(C(O)c5ccccc5)on4)c3c2)cn1 (centres unmarked) please.
Output: 0.5 to 1000 nM

Task: Also, Cn1cc(-c2cnc3[nH]cc(-c4cc([C@](C)(O)c5ccccc5)on4)c3c2)cn1 (single isomer, unassigned) please.
Output: 1000 to 10000 nM

Task: Also, Cn1cc(-c2cnc3[nH]cc(-c4cc(C(C)(O)c5ccc(=O)n(C)n5)on4)c3c2)cn1 (centres unmarked) please.
Output: 1000 to 10000 nM

Task: Also, Cn1cc(-c2cnc3[nH]cc(-c4nnc(C(C)(O)c5ccccc5)o4)c3c2)cn1 (centres unmarked) please.
Output: 1000 to 10000 nM

====

Each entry below carries its recorded IC50.
Biological target: PDK1 (Homo sapiens, UniProt O15530)
Construct: endogenous in cells; host or cells: PC3 cells
Assay: Cellular testing of PDK1 kinase inhibitors in PC3 cells (Luminex, phospho-T308-PKB)
Type: cell-based
Conditions: 30 min, serum-free

Recorded IC50, per entry:
CC(O)(c1cc(-c2c[nH]c3ncc(-c4cnn(CCO)c4)cc23)no1)c1ccccc1F (centres unmarked) [A24] | 0.5 to 1000 nM
Cn1cc(-c2cnc3[nH]cc(-c4nnc(Cc5cccc(F)c5)o4)c3c2)cn1 [A19] | 1000 to 10000 nM

Task: Which IC50 value belongs to Cn1cc(-c2cnc3[nH]cc(-c4nnc(C(O)c5ccc(C(=O)NC6CCCCC6)cc5Cl)o4)c3c2)cn1 (centres unmarked) [A129] ?
Output: 1000 to 10000 nM

Task: Also, Cn1cc(-c2cnc3[nH]cc(-c4cc(CO)on4)c3c2)cn1 [A105] please.
Output: 1000 to 10000 nM

Task: Also, Cn1cc(-c2cnc3[nH]cc(-c4nc(C(C)(O)c5cccc(F)c5F)no4)c3c2)cn1 (centres unmarked) [A78] please.
Output: 0.5 to 1000 nM

Task: Also, Cn1cc(-c2cnc3[nH]cc(-c4nnc(C(O)c5ccccc5)o4)c3c2)cn1 (centres unmarked) [A29] please.
Output: 1000 to 10000 nM

Task: Also, Cn1cc(-c2cnc3[nH]cc(-c4nnc(Cc5cccc(F)c5F)o4)c3c2)cn1 [A20] please.
Output: 1000 to 10000 nM

Task: Also, Cn1cc(-c2cnc3[nH]cc(-c4cc(C(C)(O)c5cccc(F)c5F)[nH]n4)c3c2)cn1 (centres unmarked) [A64] please.
Output: 0.5 to 1000 nM

Task: Also, Cn1cc(-c2cnc3[nH]cc(-c4nc(C(C)(O)c5cccc(F)c5)no4)c3c2)cn1 (centres unmarked) [A72] please.
Output: 0.5 to 1000 nM

Task: Also, Cn1cc(-c2cnc3[nH]cc(-c4nc(C(C)(O)c5cccc(Cl)c5)no4)c3c2)cn1 (centres unmarked) [A80] please.
Output: 0.5 to 1000 nM

Task: Also, Cn1cc(-c2cnc3[nH]cc(-c4n[nH]c(Cc5cccc(F)c5F)n4)c3c2)cn1 [A16] please.
Output: 0.5 to 1000 nM

Task: Also, Cn1cc(-c2cnc3[nH]cc(-c4nnc(C(O)c5ccc(Cl)cc5)o4)c3c2)cn1 (centres unmarked) [A60] please.
Output: 1000 to 10000 nM

Task: Also, CC(O)(c1cc(-c2c[nH]c3ncc(-c4cnn(CC(=O)N5CCCCC5)c4)cc23)no1)c1ccccc1F (centres unmarked) [A12] please.
Output: 0.5 to 1000 nM

Task: Also, Cn1cc(-c2cnc3[nH]cc(-c4nnc(C5(c6ccccn6)CC5)o4)c3c2)cn1 [A120] please.
Output: 1000 to 10000 nM
